A compilation of IC50 values for IKKε (Homo sapiens) from the published literature.

N#Cc1cc(-c2ccnc3cc(-c4ccc(C(=O)NCCC(F)(F)F)cc4)oc23)ccc1OC1CCOCC1 : 300 to 3000 nM
COc1cc(-c2cc3nccc(-c4ccc(OC5CCOCC5)c(C#N)c4)c3o2)ccc1C(=O)NCCN1CCC(F)(F)CC1 : < 300 nM
N#Cc1cc(-c2ccnc(Nc3cnn(C[C@H]4C[C@@H]4CO)c3)n2)ccc1OC1CCOCC1 : 4 nM
COc1cc(-c2cc3nccc(-c4ccc(OC5CCOCC5)c(C#N)c4)c3o2)ccc1C(=O)N1CC[C@H](O)C1 : < 300 nM
COc1nc(Nc2cc(-c3ccc(OC4CCOCC4)c(C#N)c3)ncn2)ccc1C1CCN(C)CC1 : < 100 nM
COc1nc(Nc2cc(-c3ccc(O[C@@H]4CCN(C(=O)[C@H](C)O)CC4(F)F)c(C#N)c3)ncn2)ccc1N1CCN(C2COC2)C[C@@H]1C : < 100 nM

Kindly review the next compound as well.
Value lookup for IC50; key = COc1nc(Nc2cc(-c3ccc(OC4CCNCC4(F)F)c(C#N)c3)ncn2)ccc1C1CCN(C2COC2)CC1 (stereo not shown)
< 100 nM

###

A compilation of IC50 values for IKKε (Homo sapiens, UniProt Q14164) from the published literature.

CN1CCN(C(=O)c2ccc(-c3cc4nccc(-c5ccc(OC6CCOCC6)c(C#N)c5)c4o3)cc2)CC1 : < 0.3 µM
COc1cc(C(=O)N2CCC(O)CC2)ccc1-c1cc2nccc(-c3ccc(OC4CCOCC4)c(C#N)c3)c2o1 : < 0.3 µM
COc1ccnc2[nH]cc(-c3ccc(OC4CCOCC4)c(C#N)c3)c12 : 0.3 to 3 µM

I need IC50 for every entry listed below, if you could help.
1. CC1(COc2ccc(-c3c[nH]c4ncc(-c5cn[nH]c5)cc34)cc2C#N)COC1
2. COc1nc(Nc2cc(-c3ccc(O[C@H]4CCN(C(=O)[C@H](C)O)CC4(F)F)c(C#N)c3)ncn2)ccc1N1CCN(C2COC2)C[C@@H]1C
3. Nc1ncc(-c2cn[nH]c2)cc1C(=O)Nc1ccncc1
4. Cn1cc(-c2cnc3[nH]cc(-c4cn(Cc5ccccc5Cl)nn4)c3n2)cn1

["< 0.3 µM", "< 0.1 µM", "0.74 µM", "0.0005 to 1 µM"]

I need IC50 for every entry listed below, if you could help.
1. N#Cc1cc(-c2ccnc(Nc3cnn(CCN4CCOCC4)c3)c2)ccc1OC1CCOCC1
2. N#Cc1cc(-c2ccnc3cc(-c4cnn(C5CCNCC5)c4)sc23)ccc1OC1CCOCC1
3. N#Cc1cc(-c2ccnc(Nc3cnn(C4CCNCC4)c3)c2)ccc1OC1CCOCC1
4. Nc1ncc(-c2coc3ccccc23)cc1C(=O)Nc1ccncc1

["0.15 µM", "< 0.3 µM", "0.007 µM", "0.3 µM"]

I need IC50 for every entry listed below, if you could help.
1. Nc1ccc(-c2c[nH]c3ncc(-c4ccc(CN5CCOCC5)s4)cc23)c2c1C(=O)NC2
2. CN(CCO)C(=O)c1ccc(-c2cc3nccc(-c4ccc(OC5CCOCC5)c(C#N)c4)c3s2)cc1
3. N#Cc1cc(-c2ccnc(Nc3cc(C4=CCCCO4)ccn3)c2)ccc1OC1CCOCC1
4. Nc1ncc(-c2ccc(CN3CCCCC3)s2)cc1C(=O)Nc1ccncc1
5. CC1CN(C(=O)NC2CCCC2)CC=C1c1c[nH]c2ncc(-c3ccc(S(C)(=O)=O)cc3)cc12 (stereo not shown)

1: 0.056 µM; 2: < 0.3 µM; 3: 0.3 µM; 4: 0.12 µM; 5: 0.33 µM

I need IC50 for every entry listed below, if you could help.
1. N#Cc1cc(-c2ccnc3cc(-c4ccc(C(=O)N5CCNCC5)cc4)oc23)ccc1OC1CCOC1 (stereo not shown)
2. N#Cc1cc(-c2ccnc(Nc3ccc(-c4cccnc4)cn3)c2)ccc1OC1CCOCC1
3. Cc1occc1-c1cc2nccc(-c3ccc(OC4CCOCC4)c(C#N)c3)c2o1
4. N#Cc1cc(-c2c[nH]c3ncc(OCCN4CCOCC4)cc23)ccc1OC1CCOCC1
5. COc1cc(Nc2cc(-c3ccc(OC4CCOCC4)c(C#N)c3)ncn2)cnc1C1CCN(C)CC1
6. CC(C)NC(=O)N1CCC(c2c[nH]c3ncc(-c4ccc(C(=O)N5CCN(C)CC5)cc4)cc23)=CC1C (stereo not shown)

1: < 0.3 µM; 2: 0.37 µM; 3: < 0.3 µM; 4: < 0.3 µM; 5: 0.1 to 1 µM; 6: 0.0033 µM

###

pIC50: −log10 of the molar value.
A compilation of pIC50 values for IKKε (Homo sapiens, UniProt Q14164) from the published literature.

Cn1cc(-c2cnc3[nH]cc(-c4cn(C)c5cnccc45)c3c2)cn1 : 6.00 to 9.30

I need pIC50 for every entry listed below, if you could help.
1. COc1nc(Nc2cc(-c3ccc(OC4CCN(C(=O)[C@@H](C)O)CC4(F)F)c(C#N)c3)ncn2)ccc1N1CCN(C2COC2)C[C@H]1C (stereo partly drawn)
2. N#Cc1cc(-c2ccnc3cc(-c4cccc(N5CCOCC5)c4)oc23)ccc1OC1CCOCC1

> 7.00
> 6.52

###

A compilation of IC50 values for IKKε (Homo sapiens, UniProt Q14164) from the published literature.

N#Cc1cc(-c2c[nH]c3ncc(-c4cnn(CCN5CCOCC5)c4)cc23)ccc1OC1CCOCC1 : < 300 nM
COc1cc(-c2cc3nccc(-c4ccc(OC5CCOCC5)c(C#N)c4)c3o2)ccc1C(=O)N1CC2(COC2)C1 : < 300 nM
CC(C)NC(=O)N1CC=C(c2c[nH]c3ncc(-c4cccc(F)c4)cc23)CC1 : > 10000 nM
N#Cc1cc(-c2c[nH]c3ncc(-c4cn(C5CCNCC5)nn4)cc23)ccc1OC1CCOCC1 : < 300 nM
Cn1cc(-c2cnc3[nH]cc(-c4cn(Cc5cccc(F)c5F)nn4)c3c2)cn1 : 0.5 to 1000 nM

I need IC50 for every entry listed below, if you could help.
1. Cn1cc(-c2cnc3[nH]cc(-c4cn(Cc5cccc(F)c5)nn4)c3n2)cn1
2. N#Cc1cc(-c2ccnc3cc(-c4ccc(C(=O)NC5COc6ccccc6C5)cc4)oc23)ccc1OC1CCOCC1 (centres unmarked)
3. COc1cc(Nc2cc(-c3ccc(OC4CCOCC4)c(C#N)c3)ncn2)cnc1C(=O)N(C)C

1: 0.5 to 1000 nM; 2: 300 to 3000 nM; 3: 1000 to 5000 nM

###

A compilation of IC50 values for IKKε (Homo sapiens, UniProt Q14164) from the published literature.

Consider the following illustrative entries.
COc1ccc2c(-c3ccc(OC4CCOCC4)c(C#N)c3)c[nH]c2n1 : 3000 to 50000 nM
N#Cc1cc(-c2ccnc3cc(-c4ccc(C(=O)NCCc5cccnc5)cc4)oc23)ccc1OC1CCOCC1 : < 300 nM

I need IC50 for every entry listed below, if you could help.
1. COc1nc(Nc2cc(-c3ccc(OC4CCOCC4)c(C#N)n3)ncn2)ccc1C(=O)N(C)C
2. COc1nc(Nc2cc(-c3ccc(OC4CCN(C(=O)c5cocn5)CC4)c(C#N)c3)ncn2)ccc1N1CCN(C)CC1

1000 to 5000 nM
< 100 nM

###

A compilation of IC50 values for IKKε (Homo sapiens) from the published literature.

N#Cc1cc(-c2ccnc3cc(-c4ccc(C(=O)N5CCNC(=O)CC5)cc4F)oc23)ccc1OC1CCOCC1 : < 300 nM
CN1CCN(c2nccc(-c3ccc(N)c4c3CNC4=O)n2)CC1 : > 10000 nM

Kindly review the next compound as well.
Value lookup for IC50; key = `COc1nc(Nc2cc(-c3ccc(OC4CCN(C(=O)c5cocn5)CC4)c(C#N)c3)ncn2)ccc1C(=O)N(C)C`
< 100 nM

###

A compilation of IC50 values for IKKε (Homo sapiens, UniProt Q14164) from the published literature.

Consider the following illustrative entries.
COc1nc(Nc2cc(-c3ccc(OC4CCN(C(=O)CO)CC4(F)F)c(C#N)c3)ncn2)ccc1N1CCN(C)CC1 (centres unmarked) : < 100 nM
CCN(CCOC)C(=O)c1ccc(-c2cc3nccc(-c4ccc(OC5CCOCC5)c(C#N)c4)c3o2)cc1 : < 300 nM
NC(=O)Cn1cc(-c2cnc(N)c(C(=O)Nc3ccncc3)c2)cn1 : 530 nM

I need IC50 for every entry listed below, if you could help.
1. CCC1C=C(c2c[nH]c3ncc(-c4ccc(CN5CCOCC5)cc4)cc23)CCN1C(=O)NC(C)C (centres unmarked)
2. Nc1ccc(-c2ccnc(N3CCOCC3)n2)c2c1C(=O)NC2
3. CC(C)NC(=O)N1CC=C(c2c[nH]c3ncc(-c4ccc(CN5CCOCC5)o4)cc23)CC1
4. COc1ccc(-c2cnc3[nH]cc(C4CCN(C(=O)NC(C)C)CC4)c3c2)cc1OC

["62 nM", "> 10000 nM", "9.3 nM", "> 10000 nM"]

I need IC50 for every entry listed below, if you could help.
1. COc1nc(Nc2cc(-c3cc(C#N)c(OC4CCOCC4)cn3)ncn2)ccc1C1CCN(C)CC1
2. COCCn1cc(Nc2cc(-c3ccc(OCC4CC4)c(C#N)c3)ccn2)cn1
3. N#Cc1cc(-c2ccnc3cc(-c4ccc(C(=O)N5CCNCC5)cc4)oc23)ccc1OC1CCOCC1
4. CN(CCO)C(=O)c1ccc(-c2cc3nccc(-c4ccc(OC5CCOC5)c(C#N)c4)c3s2)cc1 (centres unmarked)
5. COc1nc(Nc2cc(-c3ccc(OC4CCOCC4)c(C#N)c3)ncn2)ccc1C(=O)N(C)C

["< 100 nM", "65 nM", "< 300 nM", "< 300 nM", "< 100 nM"]

I need IC50 for every entry listed below, if you could help.
1. Nc1ncc(-c2ccc(CN3CCOCC3)s2)cc1C(=O)Nc1ccnc2ccoc12
2. CS(=O)(=O)c1cccc(-c2cnc3[nH]cc(C4=CCN(C(=O)NC5CCCC5)CC4)c3n2)c1
3. COc1nc(Nc2cc(-c3ccc(OC4CCN(C(=O)[C@@H](C)O)CC4(F)F)c(C#N)c3)ncn2)ccc1N1CCN(C2COC2)C[C@@H]1C (some centres unmarked)
4. Cc1[nH]c2ncc(-c3cnn(C)c3)cc2c1-c1ccc(OC2CCOCC2)c(C#N)c1
5. N#Cc1cc(-c2ccnc3cc(-c4ccc(C(=O)N5CCNCC5)cc4F)oc23)ccc1OC1CCOCC1
6. COc1nc(Nc2cc(-c3ccc(OC4CCN(C(=O)[C@@H](C)O)CC4(F)F)c(C#N)c3)ncn2)ccc1N1CCN(C2COC2)CC1 (some centres unmarked)
7. COc1nc(Nc2cc(-c3ccc(NC4CCOCC4)c(C#N)c3)ncn2)ccc1C(=O)N(C)C

1: 2400 nM; 2: 400 nM; 3: < 100 nM; 4: 300 to 3000 nM; 5: < 300 nM; 6: < 100 nM; 7: 100 to 1000 nM
